targetEntity: human PARS enzyme (Homo sapiens)
Sequence (P09874 whole entry): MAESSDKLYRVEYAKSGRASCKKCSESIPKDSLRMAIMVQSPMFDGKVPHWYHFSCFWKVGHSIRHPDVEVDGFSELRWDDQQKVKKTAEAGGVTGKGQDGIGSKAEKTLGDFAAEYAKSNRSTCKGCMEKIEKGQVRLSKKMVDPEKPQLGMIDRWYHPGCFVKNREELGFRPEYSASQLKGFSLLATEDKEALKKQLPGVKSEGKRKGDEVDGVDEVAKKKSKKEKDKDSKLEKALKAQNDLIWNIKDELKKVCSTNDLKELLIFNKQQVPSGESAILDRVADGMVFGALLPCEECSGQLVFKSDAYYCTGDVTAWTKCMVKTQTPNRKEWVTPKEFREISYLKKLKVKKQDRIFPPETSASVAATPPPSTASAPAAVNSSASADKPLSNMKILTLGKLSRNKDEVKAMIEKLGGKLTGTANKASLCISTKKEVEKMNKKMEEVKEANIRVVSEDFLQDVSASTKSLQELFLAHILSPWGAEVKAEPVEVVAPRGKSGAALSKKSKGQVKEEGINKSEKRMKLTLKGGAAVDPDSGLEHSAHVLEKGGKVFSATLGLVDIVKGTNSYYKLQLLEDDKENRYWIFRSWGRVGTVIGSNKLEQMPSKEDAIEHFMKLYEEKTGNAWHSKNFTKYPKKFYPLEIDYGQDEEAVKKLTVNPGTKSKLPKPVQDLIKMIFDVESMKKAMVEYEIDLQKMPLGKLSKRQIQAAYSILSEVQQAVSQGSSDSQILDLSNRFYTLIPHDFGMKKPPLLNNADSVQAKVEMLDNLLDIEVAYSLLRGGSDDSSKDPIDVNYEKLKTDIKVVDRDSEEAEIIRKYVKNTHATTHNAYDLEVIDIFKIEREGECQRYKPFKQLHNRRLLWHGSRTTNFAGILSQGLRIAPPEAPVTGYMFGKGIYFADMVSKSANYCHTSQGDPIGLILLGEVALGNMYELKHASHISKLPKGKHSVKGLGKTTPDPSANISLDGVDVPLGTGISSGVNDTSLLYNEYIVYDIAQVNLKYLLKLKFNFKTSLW
procedureDetails: PARS inhibition test (in vitro)
conditionSummary: recombinant human PARS, [14C]-NAD+, 10 min room temperature
pIC50: −log10 of the molar value.
measuredParameter: pIC50

Worked set:
O=c1[nH]c(=O)n(Cc2cccnc2)c2c1CSCC2    7.12
O=c1[nH]c(=O)n(CCc2ccc(CNCCO)cc2)c2c1CSCC2    7.30

P = O=c1[nH]c(=O)n(CCc2ccc([N+](=O)[O-])cc2)c2c1CSCC2
Q = Oc1cccc2c(O)nccc12 [DHCH, 1,5-dihydroxyisoquinoline, reference compound]
R = O=c1[nH]c(=O)n(CCc2ccc(Br)cc2)c2c1CSCC2
*Q* Sequence the entries by pIC50, beginning with the highest number. Please, when replying, give the labels in the order that was requested.
*A* P, R, Q
(P: 7.70, R: 7.22, Q: 6.52)

Reference for the values: patent US20050159431A1
